SUBJECT OF TEST: 85/88 kDa calcium-independent phospholipase A2 (Homo sapiens) (UniProt O60733)
Sequence (O60733 whole entry): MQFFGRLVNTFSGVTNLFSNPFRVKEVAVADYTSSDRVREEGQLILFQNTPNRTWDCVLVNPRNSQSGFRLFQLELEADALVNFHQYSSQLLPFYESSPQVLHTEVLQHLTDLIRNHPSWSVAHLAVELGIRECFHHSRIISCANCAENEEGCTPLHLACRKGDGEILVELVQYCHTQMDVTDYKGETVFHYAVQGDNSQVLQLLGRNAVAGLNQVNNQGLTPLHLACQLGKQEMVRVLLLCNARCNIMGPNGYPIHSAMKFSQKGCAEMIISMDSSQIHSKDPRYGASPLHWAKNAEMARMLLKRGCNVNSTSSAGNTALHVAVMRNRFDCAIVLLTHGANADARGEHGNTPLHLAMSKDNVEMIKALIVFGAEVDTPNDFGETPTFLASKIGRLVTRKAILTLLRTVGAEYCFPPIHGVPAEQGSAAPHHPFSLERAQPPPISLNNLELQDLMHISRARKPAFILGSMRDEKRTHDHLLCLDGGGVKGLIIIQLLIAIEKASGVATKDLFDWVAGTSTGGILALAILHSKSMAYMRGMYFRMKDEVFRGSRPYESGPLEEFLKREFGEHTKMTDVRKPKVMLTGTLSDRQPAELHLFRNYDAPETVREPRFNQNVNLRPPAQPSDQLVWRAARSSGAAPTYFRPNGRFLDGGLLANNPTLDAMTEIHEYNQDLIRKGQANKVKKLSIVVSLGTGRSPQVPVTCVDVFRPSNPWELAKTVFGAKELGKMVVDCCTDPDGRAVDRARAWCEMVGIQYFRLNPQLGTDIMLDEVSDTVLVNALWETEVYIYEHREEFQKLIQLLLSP
ASSAY REMARKS: Inhibition of human recombinant group 6A iPLA2 expressed in Sf9 insect cells after 30 mins by Dole assay
Hi there, I'd appreciate the recorded XI50 (mole fraction) for every entry that follows.

Entry under test: `O=C(CCCCc1ccccc1)C(F)(F)C(F)(F)C(F)(F)F` . Its XI50 (mole fraction) was 0.0022

Entry under test: `O=C(CCCCc1ccc2ccccc2c1)C(F)(F)C(F)(F)C(F)(F)F` . Its XI50 (mole fraction) was 0.001

Entry under test: `CCCCCCCC/C=C\CCCCCCCC(=O)C(F)(F)C(F)(F)C(F)(F)F` . Its XI50 (mole fraction) was 0.0574

Entry under test: `O=C(/C=C/C=C/c1ccccc1)C(F)(F)C(F)(F)F` . Its XI50 (mole fraction) was 0.0313

Entry under test: `CCCCCCCCc1ccc(OCCCC(=O)C(F)(F)C(F)(F)F)cc1` . Its XI50 (mole fraction) was 0.0024

Entry under test: `O=C(CCCCc1ccc2ccccc2c1)C(F)(F)C(F)(F)F` . Its XI50 (mole fraction) was 0.0006

Entry under test: OC(CCCCc1ccccc1)C(F)(F)C(F)(F)C(F)(F)F (configuration not stated) . Its XI50 (mole fraction) was 0.0258

Entry under test: O=C(C(F)CCCc1ccccc1)C(F)(F)C(F)(F)F (configuration not stated) . Its XI50 (mole fraction) was 0.0005

Entry under test: O=C(C(F)CCCc1ccccc1)C(F)(F)F (configuration not stated) . Its XI50 (mole fraction) was 0.0025

Entry under test: O=C(C(F)CCCCc1ccccc1)C(F)(F)F (configuration not stated) . Its XI50 (mole fraction) was 0.0013

Entry under test: O=C(C(F)CCCc1ccccc1)C(F)(F)C(F)(F)C(F)(F)F (configuration not stated) . Its XI50 (mole fraction) was 0.0005

Entry under test: `CCCCCCOc1ccc(CCCCC(=O)C(F)(F)C(F)(F)F)cc1` . Its XI50 (mole fraction) was 0.0084

----------
SUBJECT OF TEST: Cytosolic phospholipase A2 (Homo sapiens)
ASSAY REMARKS: Inhibition of human group […] cPLA2 at 0.091 mol fraction after 30 mins by Dole assay
Hi there, I'd appreciate the recorded inhibition for every entry that follows.
Express it in %; write the number only.

Measured inhibition (Cytosolic phospholipase A2 (Homo sapiens)), entry O=C(C(F)CCCc1ccccc1)C(F)(F)C(F)(F)F (stereo not drawn) : 68.4

Measured inhibition (Cytosolic phospholipase A2 (Homo sapiens)), entry `CCCCCCOc1ccc(CCCCC(=O)C(F)(F)C(F)(F)C(F)(F)F)cc1` : 43.7

Measured inhibition (Cytosolic phospholipase A2 (Homo sapiens)), entry `CCCCCCCCc1ccc(OCCCC(=O)C(F)(F)F)cc1` : 91.5

Value source: ChEMBL document CHEMBL1157935
